system: UACC-257 melanoma; test: NCI tumour cell line growth inhibition, 48 h
GI50 overview

compound | studySystem | GI50
Brc1ccc(Nc2nc3ccccc3nc2Nc2ccc(Br)cc2)cc1 | UACC-257 melanoma | 2.01 µM
CCN1C(=O)N(CC)C2C1NC(=S)N2/N=C/C=C/c1ccccc1OC (centres undefined) | UACC-257 melanoma | > 100 µM
N#Cc1c2ccccc2c2nnc3ccc(C(F)(F)F)cc3n12 | UACC-257 melanoma | 21.2 µM
O=C(c1cccs1)c1nc2cc(Cl)ccc2[n+]([O-])c1C(F)(F)F | UACC-257 melanoma | 49.9 µM
O=c1[nH]c2ccccc2n2cc3ccccc3c12 | UACC-257 melanoma | 15.3 µM
O=C(O)c1ccc(C(=O)O)c(C(=O)O)c1.[NH-]C1CCCCC1[NH-].[Pt+2] | UACC-257 melanoma | 15.4 µM
FC(F)(F)c1ccc(-c2ncc(-c3ccc(C(F)(F)F)cc3)c(NCc3cc(C(F)(F)F)cc(C(F)(F)F)c3)n2)cc1 | UACC-257 melanoma | 5.29 µM
Oc1ccc(Cc2ccc(O)c(C3CC(c4ccc(Cl)cc4)=NN3)c2)cc1C1CC(c2ccc(Cl)cc2)=NN1 (centres undefined) | UACC-257 melanoma | 3.1 µM
Cc1ccc(NC(=O)c2nc(S(C)(=O)=O)oc2-c2ccc(F)cc2)cc1Nc1ccc2ncn(C)c(=O)c2c1 | UACC-257 melanoma | 1.88 µM

----------
test system: CAKI-1 renal; experiment: NCI tumour cell line growth inhibition, 48 h; in the data active = GI50 below about 0.43 µM; inactive = the rest
Outcomes: yes = active, no = inactive

smilesStr | qualitativeLabel
COc1cc(/C=C/C(=O)c2c(C)nc3ccccc3c2C)ccc1OCCCCOc1cc2c(cc1OC)C(=O)N1CCC[C@H]1C=N2 | yes
C/C(=N\O)c1cccc(Nc2cc(-c3ccccc3)nc3c(O)cccc23)c1 | no
CCCCCCc1cc2cc(-c3csc(/C=C/c4ccccc4)n3)c(=O)oc2cc1O | no
NC(=N\N=C/c1ccc(Cl)cc1Cl)/C(N)=N\N=C/c1ccc(Cl)cc1Cl | no
FC(F)(F)c1cc(-c2ncn(/C=C\c3nnco3)n2)cc(C(F)(F)F)c1 | yes

----------
test system: SK-OV-3 ovarian; assay: NCI tumour cell line growth inhibition, 48 h
This section presents compounds with their documented TGI values.

smilesStr | studySystem | operator | TGI [µM]
O=C(N/C=C/C=C/Sc1ccccc1)OCc1ccccc1 | SK-OV-3 ovarian | = | 64.6
CCCCCCc1cc2cc(-c3csc(/C=C/c4ccccc4)n3)c(=O)oc2cc1O | SK-OV-3 ovarian | = | 80.3
O=c1oc2ccc3ccccc3c2cc1-c1cn2c(n1)sc1ccccc12 | SK-OV-3 ovarian | > | 100
COC(=O)[C@@H](C)C[C@H](Cc1ccccc1)NC(=O)c1csc([C@@H](C[C@H](C(C)C)N(C)C(=O)C2(NC(=O)[C@H]3CCCCN3C)CCC2)OC(C)=O)n1 | SK-OV-3 ovarian | > | 25
CC(CNC(=O)c1ccccc1)(CNC(=O)c1ccccc1)[N+](=O)[O-] | SK-OV-3 ovarian | > | 100

----------
tested on: SK-MEL-2 melanoma; assay: NCI tumour cell line growth inhibition, 48 h
quantity: log10 TGI (log10 of the value in µM)

molecule | log10 TGI
CCOC(=O)/C(=C/c1ccccc1Br)P(=O)(OCC)OCC | 0.57
O=C(O)C1=CN(c2ccncc2)C(c2ccco2)=CC1c1ccccc1[N+](=O)[O-] (stereo unspecified) | 1.54
O=c1[nH]c2ccccc2n2cc3ccccc3c12 | 1.59
FC(F)(F)c1ccc(-c2ncc(-c3ccc(C(F)(F)F)cc3)c(NCc3cc(C(F)(F)F)cc(C(F)(F)F)c3)n2)cc1 | 0.95
Cc1c2ccccc2c(C2C3C(=O)N(c4cccc5ccccc45)C(=O)C3ON2Cc2ccc(CC(N)=O)cc2)c2ccccc12 (stereo unspecified) | 1.50
CC[C@@H]1CC[C@@H]2[C@H](CC[C@]3(C)[C@@H](OC(C)=O)CC[C@@H]23)[C@H]1C(=O)OC | 1.59
O=C(Oc1c(Br)cc(Br)cc1C(=O)Oc1ccccc1)C(=O)Oc1c(Br)cc(Br)cc1C(=O)Oc1ccccc1 | 1.97
O=C1/C(=C\c2ccccc2)CN(C(=O)c2ccccc2)C/C1=C\c1ccccc1 | 0.95
CCc1nc2ccccc2c(=O)n1/N=C(\N=Nc1ccc(Cl)cc1)c1ccccc1 | 1.92
